Reference for the values: patent US20210388087A1

The reader will find reported fold change of affinity values listed item by item below.
measured-target: T1, Human CD3eg linker (human)
T1 construct: single-chain construct; also called recombinant human CD3
T1 chain: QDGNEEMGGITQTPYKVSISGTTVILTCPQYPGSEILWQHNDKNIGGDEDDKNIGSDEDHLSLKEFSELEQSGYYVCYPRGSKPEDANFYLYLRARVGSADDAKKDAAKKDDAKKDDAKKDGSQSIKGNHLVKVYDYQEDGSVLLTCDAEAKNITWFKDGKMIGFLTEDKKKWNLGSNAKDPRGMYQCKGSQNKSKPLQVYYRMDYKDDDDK
test-method-notes: SPR, vs unmutated H183/L072

- binder: "dBBDu183H P100eR/dBBDu072L (antibody, name in Kabat numbering, V domains shown) VH: QVQLVESGGGLVQPGRSLRLSCAASGFTFSNAWMHWVRQAPGKGLEWVAQIKDKGNAYAAYYAPSVKGRFTISRDDSKNSIYLQMNSLKTEDTAVYYCHYVHYASASTVLRAFGVDAWGQGTTVTVSS VL: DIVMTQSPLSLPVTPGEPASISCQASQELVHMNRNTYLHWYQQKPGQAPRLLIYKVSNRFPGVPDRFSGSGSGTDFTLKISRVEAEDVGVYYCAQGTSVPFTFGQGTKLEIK"
  uom: "fold"
  fold change of affinity: 2.2
- binder: "dBBDu183H P61F/dBBDu072L (antibody, name in Kabat numbering, V domains shown) VH: QVQLVESGGGLVQPGRSLRLSCAASGFTFSNAWMHWVRQAPGKGLEWVAQIKDKGNAYAAYYAFSVKGRFTISRDDSKNSIYLQMNSLKTEDTAVYYCHYVHYASASTVLPAFGVDAWGQGTTVTVSS VL: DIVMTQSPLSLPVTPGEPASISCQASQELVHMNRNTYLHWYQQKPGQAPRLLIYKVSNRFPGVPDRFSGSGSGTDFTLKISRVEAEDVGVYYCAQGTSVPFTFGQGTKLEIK"
  uom: "fold"
  fold change of affinity: 1.8
- binder: "dBBDu183H V100cY/dBBDu072L (antibody, name in Kabat numbering, V domains shown) VH: QVQLVESGGGLVQPGRSLRLSCAASGFTFSNAWMHWVRQAPGKGLEWVAQIKDKGNAYAAYYAPSVKGRFTISRDDSKNSIYLQMNSLKTEDTAVYYCHYVHYASASTYLPAFGVDAWGQGTTVTVSS VL: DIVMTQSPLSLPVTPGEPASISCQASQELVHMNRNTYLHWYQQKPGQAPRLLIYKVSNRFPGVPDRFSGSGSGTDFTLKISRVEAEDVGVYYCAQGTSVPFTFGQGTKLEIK"
  uom: "fold"
  fold change of affinity: 1.3
- binder: "dBBDu183H V95K/dBBDu072L (antibody, name in Kabat numbering, V domains shown) VH: QVQLVESGGGLVQPGRSLRLSCAASGFTFSNAWMHWVRQAPGKGLEWVAQIKDKGNAYAAYYAPSVKGRFTISRDDSKNSIYLQMNSLKTEDTAVYYCHYKHYASASTVLPAFGVDAWGQGTTVTVSS VL: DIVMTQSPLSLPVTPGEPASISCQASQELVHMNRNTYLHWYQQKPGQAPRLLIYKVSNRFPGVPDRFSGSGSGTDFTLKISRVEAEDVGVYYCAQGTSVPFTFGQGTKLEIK"
  uom: "fold"
  fold change of affinity: 0
- binder: "dBBDu183H D101F/dBBDu072L (antibody, name in Kabat numbering, V domains shown) VH: QVQLVESGGGLVQPGRSLRLSCAASGFTFSNAWMHWVRQAPGKGLEWVAQIKDKGNAYAAYYAPSVKGRFTISRDDSKNSIYLQMNSLKTEDTAVYYCHYVHYASASTVLPAFGVFAWGQGTTVTVSS VL: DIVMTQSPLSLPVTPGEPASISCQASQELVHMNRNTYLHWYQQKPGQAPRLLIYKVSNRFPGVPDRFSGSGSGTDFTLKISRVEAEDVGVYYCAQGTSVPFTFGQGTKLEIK"
  uom: "fold"
  fold change of affinity: 2.5
- binder: "dBBDu183H A102W/dBBDu072L (antibody, name in Kabat numbering, V domains shown) VH: QVQLVESGGGLVQPGRSLRLSCAASGFTFSNAWMHWVRQAPGKGLEWVAQIKDKGNAYAAYYAPSVKGRFTISRDDSKNSIYLQMNSLKTEDTAVYYCHYVHYASASTVLPAFGVDWWGQGTTVTVSS VL: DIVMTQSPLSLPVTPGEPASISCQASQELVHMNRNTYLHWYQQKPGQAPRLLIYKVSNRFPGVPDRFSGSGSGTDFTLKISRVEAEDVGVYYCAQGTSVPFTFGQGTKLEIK"
  uom: "fold"
  fold change of affinity: 3.3
- binder: "dBBDu183H V100cR/dBBDu072L (antibody, name in Kabat numbering, V domains shown) VH: QVQLVESGGGLVQPGRSLRLSCAASGFTFSNAWMHWVRQAPGKGLEWVAQIKDKGNAYAAYYAPSVKGRFTISRDDSKNSIYLQMNSLKTEDTAVYYCHYVHYASASTRLPAFGVDAWGQGTTVTVSS VL: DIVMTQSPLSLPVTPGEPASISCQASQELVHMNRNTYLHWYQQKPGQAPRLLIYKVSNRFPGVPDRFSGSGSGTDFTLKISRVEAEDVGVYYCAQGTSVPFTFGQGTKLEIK"
  uom: "fold"
  fold change of affinity: 1.5
- binder: "dBBDu183H A102K/dBBDu072L (antibody, name in Kabat numbering, V domains shown) VH: QVQLVESGGGLVQPGRSLRLSCAASGFTFSNAWMHWVRQAPGKGLEWVAQIKDKGNAYAAYYAPSVKGRFTISRDDSKNSIYLQMNSLKTEDTAVYYCHYVHYASASTVLPAFGVDKWGQGTTVTVSS VL: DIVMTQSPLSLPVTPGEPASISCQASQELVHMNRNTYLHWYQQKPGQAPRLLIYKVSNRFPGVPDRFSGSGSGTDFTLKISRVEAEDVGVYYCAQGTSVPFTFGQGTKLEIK"
  uom: "fold"
  fold change of affinity: 1.5
- binder: "dBBDu183H A100F/dBBDu072L (antibody, name in Kabat numbering, V domains shown) VH: QVQLVESGGGLVQPGRSLRLSCAASGFTFSNAWMHWVRQAPGKGLEWVAQIKDKGNAYAAYYAPSVKGRFTISRDDSKNSIYLQMNSLKTEDTAVYYCHYVHYASFSTVLPAFGVDAWGQGTTVTVSS VL: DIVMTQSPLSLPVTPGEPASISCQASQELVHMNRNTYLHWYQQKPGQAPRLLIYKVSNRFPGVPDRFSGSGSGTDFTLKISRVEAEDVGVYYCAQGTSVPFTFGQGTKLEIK"
  uom: "fold"
  fold change of affinity: 1.4
- binder: "dBBDu183H H93G/dBBDu072L (antibody, name in Kabat numbering, V domains shown) VH: QVQLVESGGGLVQPGRSLRLSCAASGFTFSNAWMHWVRQAPGKGLEWVAQIKDKGNAYAAYYAPSVKGRFTISRDDSKNSIYLQMNSLKTEDTAVYYCGYVHYASASTVLPAFGVDAWGQGTTVTVSS VL: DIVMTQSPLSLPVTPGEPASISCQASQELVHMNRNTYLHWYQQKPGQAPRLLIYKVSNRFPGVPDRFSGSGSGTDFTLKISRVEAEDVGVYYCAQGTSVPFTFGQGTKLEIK"
  uom: "fold"
  fold change of affinity: 0
